# Test system: pseudotyped VSV G particles (VSVpp)
# protocol.text: microbe, parasite or virus in culture
# Format: cell-based, vesicular stomatitis virus
# particulars: Vesicular stomatitis virus, 72 h, read-out: VSVpp (EC50, μM)
measured.quantity: EC50

Worked set:
smiles.repr | EC50
Nc1nc(Nc2cc(Cl)c(-c3cc[nH]n3)c(Cl)c2)n[nH]1 | 35.8 µM
Nc1nc(Nc2cc(Cl)c(-c3cc[nH]c(=O)c3)c(Cl)c2)n[nH]1 | ≥ 10 µM
CS(=O)(=O)c1cncc(-c2c(Cl)cc(Nc3n[nH]c(N)n3)cc2Cl)c1 | ≥ 10 µM
Nc1nc(Nc2ccc(-c3cccnn3)c(Cl)c2)n[nH]1 | 15 µM
Cn1cc(-c2c(Cl)cc(Nc3n[nH]c(N)n3)cc2Cl)c(C(F)(F)F)n1 | 2.4 µM
Nc1nc(Nc2cc(Cl)c(-c3cncc(Cl)c3)c(Cl)c2)n[nH]1 | 5.3 µM

Requested field: EC50. Item: Nc1nc(Nc2cc(Cl)c(-c3cccnc3)c(Cl)c2)n[nH]1
8.1 µM

###

# System: pseudotyped HCV GT1b particles (HCVpp)
# protocol.text: microbe, parasite or virus in culture
# Format: cell-based, HCV GT1b Con1 strain
# particulars: Hepatitis C virus, GT1B, 72 h, read-out: HCVpp GT-1b (EC50, μM)
# 1 = EC50 below 0.2 µM (exclusive); -1 = EC50 at/above 0.2 µM

These solved cases illustrate the format of a correct answer.
smiles.repr | tested.system | assigned.class
CC(C)(NS(=O)(=O)c1ccc(-c2c(Cl)cc(Nc3n[nH]c(N)n3)cc2C(F)(F)F)cn1)C(F)(F)F | pseudotyped HCV GT1b particles (HCVpp) | 1
Nc1nc(Nc2cc(Cl)c(-c3ccncc3)c(Cl)c2)n[nH]1 | pseudotyped HCV GT1b particles (HCVpp) | -1
Cn1cc(-c2c(Cl)cc(Nc3n[nH]c(N)n3)cc2Cl)c(C(F)(F)F)n1 | pseudotyped HCV GT1b particles (HCVpp) | 1
Nc1nc(Nc2cc(Cl)c(-c3ccnnc3)c(Cl)c2)n[nH]1 | pseudotyped HCV GT1b particles (HCVpp) | -1
Nc1nc(Nc2cc(Cl)c(-n3ccccc3=O)c(Cl)c2)n[nH]1 | pseudotyped HCV GT1b particles (HCVpp) | -1
CNC(=O)c1ccc(-c2c(Cl)cc(Nc3n[nH]c(N)n3)cc2C(F)(F)F)cn1 | pseudotyped HCV GT1b particles (HCVpp) | 1

Is it true that EC50 reported for Nc1nc(Nc2cc(Cl)c(C3=NCCCN3)c(Cl)c2)n[nH]1 is less than 0.2 µM?
-1

Is it true that EC50 reported for CC(=O)c1sccc1-c1c(Cl)cc(Nc2n[nH]c(N)n2)cc1Cl is less than 0.2 µM?
1

Is it true that EC50 reported for Nc1nc(Nc2cc(Cl)c(-c3cncnc3)c(Cl)c2)n[nH]1 is less than 0.2 µM?
-1

###

# System: pseudotyped HCV GT1b particles (HCVpp)
# protocol.text: microbe, parasite or virus in culture
# Format: cell-based, HCV GT1b Con1 strain
# particulars: Hepatitis C virus, GT1B, 72 h, read-out: HCVpp GT-1b (EC50, μM)
measured.quantity: EC50 (µM)
Field: numeric (µM). Do not append units.

Requested field: EC50. Item: Nc1nc(Nc2cc(Cl)c(-c3cc[nH]c(=O)c3)c(Cl)c2)n[nH]1 [Compound 7]
0.809

Requested field: EC50. Item: Nc1nc(Nc2cc(Cl)c(-c3ccc(=O)[nH]c3)c(Cl)c2)n[nH]1 [Compound 3]
0.364

Requested field: EC50. Item: Nc1nc(Nc2cc(Cl)c(-c3cncc(Cl)c3)c(Cl)c2)n[nH]1 [Compound 43]
0.771

Requested field: EC50. Item: Nc1nc(Nc2cc(Cl)c(-c3cc[nH]n3)c(Cl)c2)n[nH]1 [Compound 38]
3.39

Requested field: EC50. Item: COc1ccc(-c2c(Cl)cc(Nc3n[nH]c(N)n3)cc2Cl)cn1 [Compound 1]
0.767

Requested field: EC50. Item: CS(=O)(=O)c1ccc(-c2c(Cl)cc(Nc3nc(N)n[nH]3)cc2Cl)cn1 [Compound 11]
0.271

Requested field: EC50. Item: CC(C)(C)OC(=O)N1CC=C(c2c(Cl)cc(Nc3n[nH]c(N)n3)cc2Cl)CC1 [Compound 18]
0.088

Requested field: EC50. Item: COc1cccc(-c2c(Cl)cc(Nc3n[nH]c(N)n3)cc2Cl)n1 [Compound 44]
1.16

Requested field: EC50. Item: NCC1(CO)CN(c2c(Cl)cc(Nc3nc(N)n[nH]3)cc2Cl)C1 [Compound 13]
10

Requested field: EC50. Item: CS(=O)(=O)Nc1ccc(-c2c(Cl)cc(Nc3n[nH]c(N)n3)cc2Cl)cn1 [Compound 8]
0.386

Requested field: EC50. Item: Nc1nc(Nc2cc(Cl)c(-c3ccc(C(F)(F)F)nc3)c(Cl)c2)n[nH]1 [Compound 41]
0.703

###

# System: pseudotyped HCV GT1b particles (HCVpp)
# protocol.text: microbe, parasite or virus in culture
# Type: cell-based, HCV GT1b Con1 strain
# particulars: Hepatitis C virus, GT1B, 72 h, read-out: HCVpp GT-1b (EC50, μM)
measured.quantity: EC50
The answer should read as a number with its unit following.

smiles.repr | EC50
Nc1n[nH]c(Nc2cc(F)c(-c3ccc(F)nc3)c(C(F)(F)F)c2)n1 | 0.998 µM
Nc1ccc(-c2c(Cl)cc(Nc3n[nH]c(N)n3)cc2Cl)cn1 | 0.173 µM

Requested field: EC50. Item: Nc1ncc(-c2c(Cl)cc(Nc3n[nH]c(N)n3)cc2Cl)cn1
0.1 µM

Requested field: EC50. Item: Nc1nc(Nc2cc(Cl)c(-c3cccnc3)c(Cl)c2)n[nH]1
0.413 µM

Requested field: EC50. Item: Nc1nc(Nc2cc(Cl)c(-c3ccc(Cl)s3)c(Cl)c2)n[nH]1
0.558 µM

###

# Test system: pseudotyped HCV GT1b particles (HCVpp)
# protocol.text: microbe, parasite or virus in culture
# Assay type: cell-based, HCV GT1b Con1 strain
# particulars: Hepatitis C virus, GT1B, 72 h, read-out: HCVpp GT-1b (EC50, μM)
measured.quantity: EC50 (µM)
Field: numeric (µM). Do not append units.

Worked set:
molecule | tested.system | EC50 [µM]
Nc1nc(Nc2ccc(-n3ccccc3=O)c(Cl)c2)n[nH]1 [Compound 29] | pseudotyped HCV GT1b particles (HCVpp) | 13.7
Nc1nc(Nc2ccc(-n3ccccc3=O)cc2)n[nH]1 [Compound 28] | pseudotyped HCV GT1b particles (HCVpp) | 100
Nc1nc(Nc2ccc(-c3cccnn3)c(Cl)c2)n[nH]1 [Compound 14] | pseudotyped HCV GT1b particles (HCVpp) | 6.52
COc1ncc(-c2c(Cl)cc(Nc3n[nH]c(N)n3)cc2Cl)cn1 [Compound 40] | pseudotyped HCV GT1b particles (HCVpp) | 0.52
CC(C)(C)OC(=O)N1CC2(C1)CN(c1c(Cl)cc(Nc3nc(N)n[nH]3)cc1Cl)C2 [Compound 12] | pseudotyped HCV GT1b particles (HCVpp) | 0.216

Requested field: EC50. Item: Nc1nc(Nc2cc(Cl)c(-n3cccn3)c(Cl)c2)n[nH]1 [Compound 17]
4.14

Requested field: EC50. Item: CS(=O)(=O)c1cncc(-c2c(Cl)cc(Nc3n[nH]c(N)n3)cc2Cl)c1 [Compound 2]
0.386

Requested field: EC50. Item: Nc1n[nH]c(Nc2cc(F)c(-c3cccnc3)c(C(F)(F)F)c2)n1 [Compound 10]
1.24

Requested field: EC50. Item: COc1cc(-c2c(Cl)cc(Nc3n[nH]c(N)n3)cc2Cl)ccn1 [Compound 6]
0.33

###

# Tested on: pseudotyped VSV G particles (VSVpp)
# protocol.text: microbe, parasite or virus in culture
# Assay type: cell-based, vesicular stomatitis virus
# particulars: Vesicular stomatitis virus, 72 h, read-out: VSVpp (EC50, μM)
measured.quantity: EC50

smiles.repr | tested.system | measured.quantity | reported.measurement
CS(=O)(=O)Nc1ccc(-c2c(Cl)cc(Nc3n[nH]c(N)n3)cc2Cl)cn1 | pseudotyped VSV G particles (VSVpp) | EC50 | ≥ 10 µM
NCC1(CO)CN(c2c(Cl)cc(Nc3nc(N)n[nH]3)cc2Cl)C1 | pseudotyped VSV G particles (VSVpp) | EC50 | ≥ 10 µM

Now for a further compound.
Requested field: EC50. Item: CC(C)(C)OC(=O)N1CC=C(c2c(Cl)cc(Nc3n[nH]c(N)n3)cc2Cl)CC1
≥ 10 µM

###

# System: pseudotyped VSV G particles (VSVpp)
# protocol.text: microbe, parasite or virus in culture
# Type: cell-based, vesicular stomatitis virus
# particulars: Vesicular stomatitis virus, 72 h, read-out: VSVpp (EC50, μM)
Let's look at some compounds and their measured EC50.

Requested field: EC50. Item: CC(C)(C)OC(=O)N1CC2(C1)CN(c1c(Cl)cc(Nc3nc(N)n[nH]3)cc1Cl)C2
≥ 10 µM

Requested field: EC50. Item: Nc1nc(Nc2ccc(-n3ccccc3=O)cc2)n[nH]1
≥ 100 µM

Requested field: EC50. Item: Nc1nc(Nc2cc(Cl)c(-c3ccc(=O)[nH]c3)c(Cl)c2)n[nH]1
≥ 10 µM

Requested field: EC50. Item: COc1cc(-c2c(Cl)cc(Nc3n[nH]c(N)n3)cc2Cl)ccn1
≥ 10 µM

Requested field: EC50. Item: CC(C)(NS(=O)(=O)c1ccc(-c2c(Cl)cc(Nc3n[nH]c(N)n3)cc2C(F)(F)F)cn1)C(F)(F)F
≥ 10 µM
